Known clearance of a selection of molecules
Assay: Clearance in cynomolgus monkey plasma
Format: ADME, organism-based, Macaca fascicularis
Measurement kind: clearance (mL/min/kg)

In [3]: df
Out[3]:
                    structure_smiles_string  measurement_kind  numeric_readout
0  Cc1cc(S(C)(=O)=O)cc2c(Nc3cccc(C#N)c3)c(C(N)=O)cnc12         clearance               82
1  Cc1cc(S(C)(=O)=O)cc2c(Nc3cccc(C#N)c3)c(C(N)=O)c(=O)[nH]c12         clearance              5.9
2  Cc1cc(S(C)(=O)=O)cc2c1NNC(C(N)=O)=C2Nc1cccc(C#N)c1         clearance              1.6

====

Tested on: Blood
Assay: Inhibition of LPS-induced TNFalpha production in human whole blood
Format: functional, tissue-based
Measurement kind: IC50

>>> print(df.to_string())
                    structure_smiles_string   result
0  Cc1cc(S(C)(=O)=O)cc2c1NNC(C(N)=O)=C2Nc1cncc(Cl)c1  1.58 nM
1  Cc1cc(S(C)(=O)=O)cc2c(Nc3cccc(C#N)c3)c(C(N)=O)c(=O)[nH]c12  25.1 nM
2  CS(=O)(=O)c1ccc2c(c1)C(Nc1cncc(Cl)c1)=C(C(N)=O)NN2  31.6 nM
